system: Human primary myoblasts; experiment: Hypertrophy assay (MyoScreen human myotube model): primary screening, retest, dose response; assay type: cell-based; conditions: Homo sapiens, Myoblast, Donor 3; second dose response assay
Structures can show the parent of a compound that is named as a salt.
# pEC50 annotations
# log scale: pEC50 equals minus log10 of the concentration in mol/L

| COMPOUND | pEC50 |
| --- | --- |
| CN1CCN(C(=O)CN[C@H]2C[C@@H]2c2ccc(OCc3ccccc3)cc2)CC1 [RN 1 dihydrochloride] | 10.00 |
| N[C@H]1C[C@@H]1c1ccccc1 (relative stereo) [Tranylcypromine, trans-2-phenylcyclopropan-1-amine] | 7.30 |

Then there is this compound:
stdin: Determine its reported pEC50: c1ccc(C2C[C@H]2NC2CCNCC2)cc1 (stereo partly drawn)
stdout: 10.00

These measurements were taken from patent US11382872B2.
